- Test system: NIH/3T3 cells transfected with control vector (MOCK)
- assay_comment: NIH/3T3 mock cell proliferation assay (CTG, counter assay)
- Type: cell-based
- assay_conditions: Mus musculus, NIH3T3; 72-hr incubation, CellTiter Glo; counter assay for general toxicity

molecule	IC50 [nM]
COC[C@@H](Nc1c(-c2nc3cc(OC)c(OC)cc3[nH]2)c(=O)[nH]c2cn(C)nc12)c1ncccn1 (single isomer, unassigned)	4550
CCn1cc2[nH]c(=O)c(-c3nc4c(OC)cccc4[nH]3)c(N[C@@H](C)c3ncccn3)c2n1	1490
COc1cc2[nH]c(-c3c(NC(c4ncccn4)C(C)C)c4nn(C)cc4[nH]c3=O)nc2cn1 (single isomer, unassigned)	3120
COc1cc2[nH]c(-c3c(N[C@@H](C)c4ncccn4)c4nn(C)cc4[nH]c3=O)nc2cn1	1200
CCn1cc2[nH]c(=O)c(-c3nc4cc(OC)c(OC)cc4[nH]3)c(N[C@@H](C)c3ncccn3)c2n1	800
COc1cc2nc(-c3c(NC(c4ncccn4)C4CC4)c4nn(C)cc4[nH]c3=O)[nH]c2cc1OC (single isomer, unassigned)	682
CC(C)[C@H](Nc1c(-c2nc3cnc(N(C)C)cc3[nH]2)c(=O)[nH]c2cn(C)nc12)c1ncccn1 (single isomer, unassigned)	1840
CCC(Nc1c(-c2nc3cc(OC)c(OC)cc3[nH]2)c(=O)[nH]c2cn(C)nc12)c1ncccn1 (single isomer, unassigned)	591
CC(C)[C@H](Nc1c(-c2nc3ccc(C(N)=O)cc3[nH]2)c(=O)[nH]c2cn(C)nc12)c1ncccn1 (single isomer, unassigned)	2700
CCOc1cc2[nH]c(-c3c(N[C@@H](C)c4ncccn4)c4nn(CC)cc4[nH]c3=O)nc2cc1OC	766
CC(C)[C@H](Nc1c(-c2nc3ccc(C(=O)N(C)C)cc3[nH]2)c(=O)[nH]c2cn(C)nc12)c1ncccn1 (single isomer, unassigned)	1370
CCn1cc2[nH]c(=O)c(-c3nc4cc(OC)c(OC)cc4[nH]3)c(N[C@@H](C)c3ccccn3)c2n1	1130
CCn1cc2[nH]c(=O)c(-c3nc4cc(OC)c(OC)cc4[nH]3)c(N[C@@H](C)c3cocn3)c2n1 (single isomer, unassigned)	380
